# assayText: Single dose oral and intravenous PK in CD-1 mice (mesylate salt), blood
# Format: in vivo
# Set-up: unit not given here
# testParameters: male, CD-1, mouse, whole blood; oral 10 mg/kg
# Method: These studies analyzed the PK profile of Compound 1 following a single oral gavage or single intravenous dose to CD-1 mice. Compound 1 (mesylate salt) was administered to four groups of male mice (n=4/group) as a single oral (po) gavage administration at dose levels of 5, 10, 20, and 50 mg/kg/adm or as single intravenous (IV) dose at 5 and 50 mg/kg/adm. The vehicle was 1% methylcellulose with 0.1% Tween-80 in study AMP800 and 5% dextrose in water in study AMP799. […]
quantityMeasured: AUC(0-t)
Reply: number alone, nothing else.

Input: Need AUC(0-t) of CC(C)C[C@@H]1NCCN([C@@H](CC(C)C)C(=O)N2CCC3(C[C@@H]2C)OCC(CN2CCCC2)CO3)C1=O (stereo partly shown) [Compound 1] , thanks.
Output: 0.31

* * *

# assayText: 28-day once weekly oral repeated-dose DRF study in CD-1 mice (mesylate salt), plasma
# Assay type: in vivo
# testParameters: male, CD-1, mouse, plasma, po, 300 mg/kg, 300 mg/kg/week, 4th dose
quantityMeasured: Tmax (h)
Field: numeric (h). Do not append units.

Input: Need Tmax of CC(C)C[C@@H]1NCCN([C@@H](CC(C)C)C(=O)N2CCC3(C[C@@H]2C)OCC(CN2CCCC2)CO3)C1=O (stereo partly shown) , thanks.
Output: 1.3

* * *

# assayText: 5-day daily oral repeated-dose pilot study in cynomolgus monkeys (mesylate salt)
# Assay type: in vivo
# testParameters: both sexes, cynomolgus monkey, serum, po, 12 mg/kg/day, Day 1; read-out: Peak serum levels (Cmax)
quantityMeasured: Cmax
Put down the number, then write its unit next to it.

Input: Need Cmax of CC(C)C[C@@H]1NCCN([C@@H](CC(C)C)C(=O)N2CCC3(C[C@@H]2C)OCC(CN2CCCC2)CO3)C1=O (stereo partly shown) [Compound 1] , thanks.
Output: 42 ng/mL

* * *

# assayText: 28-day once weekly oral repeated-dose DRF TK study in Beagle dogs (mesylate salt), plasma
# Format: in vivo
# testParameters: both sexes, Beagle, dog, plasma, po, 10 mg/kg, 10 mg/kg weekly, Day 8
quantityMeasured: Cmax
Put down the number, then write its unit next to it.

Input: Need Cmax of CC(C)C[C@@H]1NCCN([C@@H](CC(C)C)C(=O)N2CCC3(C[C@@H]2C)OCC(CN2CCCC2)CO3)C1=O (stereo partly shown) , thanks.
Output: 0.512 µg/mL

* * *

# assayText: Single dose oral gavage or intravenous PK in female cynomolgus monkeys, plasma
# Type: in vivo
# testParameters: female, cynomolgus monkey, plasma; po 4 mg/kg
quantityMeasured: AUC(0-inf) (ng·h/mL)
Field: numeric (ng·h/mL). Do not append units.

Input: Need AUC(0-inf) of CC(C)C[C@@H]1NCCN([C@@H](CC(C)C)C(=O)N2CCC3(C[C@@H]2C)OCC(CN2CCCC2)CO3)C1=O (stereo partly shown) , thanks.
Output: 17.3

* * *

# assayText: 28-day once weekly oral repeated-dose DRF study in CD-1 mice (mesylate salt), plasma
# Type: in vivo
# testParameters: male, CD-1, mouse, plasma, po, 300 mg/kg, 300 mg/kg/week, 2nd dose (Week 2)
quantityMeasured: Cmax (ng/mL)
Field: numeric (ng/mL). Do not append units.

Input: Need Cmax of CC(C)C[C@@H]1NCCN([C@@H](CC(C)C)C(=O)N2CCC3(C[C@@H]2C)OCC(CN2CCCC2)CO3)C1=O (stereo partly shown) , thanks.
Output: 8130
